system: KB; assay: Cytotoxicity against human KB cells after 72 hrs by MTS assay; type: functional, cell-based
Where a SMILES comes first, the peptide text is derived from it.
property.name: IC50

# count of solved cases: 3
molecule	result
CC(C)C[C@@H]1NC(=O)CNC(=O)[C@H](Cc2ccccc2)NC(=O)[C@H](C)NC(=O)[C@@H]2CCCN2C(=O)CNC1=O (HELM PEPTIDE1{A.F.G.L.G.P}$PEPTIDE1,PEPTIDE1,1:R1-6:R2$$$V2.0)	> 10 µM
CC(C)C[C@@H]1NC(=O)[C@H](C)NC(=O)[C@H](Cc2ccccc2)NC(=O)[C@H](Cc2ccc(O)cc2)NC(=O)[C@@H]2CCCN2C(=O)CNC1=O (HELM PEPTIDE1{A.L.G.P.Y.F}$PEPTIDE1,PEPTIDE1,1:R1-6:R2$$$V2.0)	7.8 µM
CC(C)C[C@@H]1NC(=O)CNC(=O)[C@H](Cc2ccccc2)NC(=O)[C@H](Cc2ccc(O)cc2)NC(=O)[C@@H]2CCCN2C(=O)CNC1=O [Cherimolacyclopeptide E] (HELM PEPTIDE1{F.G.L.G.P.Y}$PEPTIDE1,PEPTIDE1,1:R1-6:R2$$$V2.0)	> 10 µM

stdin: Please report IC50 for the following molecule: CC(C)C[C@@H]1NC(=O)CNC(=O)[C@H](Cc2ccccc2)NC(=O)[C@H](Cc2ccc(O)cc2)NC(=O)CNC(=O)CNC1=O (HELM PEPTIDE1{F.G.L.G.G.Y}$PEPTIDE1,PEPTIDE1,1:R1-6:R2$$$V2.0)
stdout: > 10 µM
